Source listed as ChEMBL document CHEMBL3091445.

experiment: Displacement of [3H]epibatidine from Torpedo californica electroplax (alpha1)2beta1gammadelta nAChR after 90 mins by liquid scintillation counting analysis; set-up: species or system Tetronarce californica
readoutKind: Ki

Query string: For the compound `COc1ccccc1C#CC(=O)N1C[C@@H]2CNC[C@@H](C2)C1` , what Ki is on record?
Result string: > 5 µM

Query string: Please report the recorded Ki for `CS(=O)(=O)c1ccc(CC(=O)N2C[C@@H]3CNC[C@@H](C3)C2)cc1` .
Result string: > 5 µM

Query string: Reported Ki for `COc1ccc(C#CC(=O)N2C[C@@H]3CNC[C@@H](C3)C2)cc1OC` : what is it?
Result string: > 5 µM

Query string: I'd like to know its Ki. The compound in question is `O=C(C#Cc1ccc2c(c1)OCO2)N1C[C@@H]2CNC[C@@H](C2)C1`
Result string: > 5 µM

Query string: Return reported Ki; argument: `O=c1c(-c2cccnc2)ccc2n1C[C@@H]1CNC[C@H]2C1`
Result string: > 5 µM

Query string: Can you share its Ki? I mean this compound: `COc1ccc(C#CC(=O)N2C[C@@H]3CNC[C@@H](C3)C2)cc1`
Result string: > 5 µM

Query string: # query: Ki of entry `O=C(c1ccc(-c2cccnc2)cc1)N1C[C@@H]2CNC[C@@H](C2)C1`
Result string: > 5 µM

###

// reported Ki for each item listed
target: Neuronal acetylcholine receptor; alpha4/beta2 (Rattus norvegicus, UniProt P09483+P12390); assay: Displacement of [3H]epibatidine from Sprague-Dawley rat brain alpha4beta2 nAChR after 90 mins by liquid scintillation counting analysis
Sequence (P09483 whole entry): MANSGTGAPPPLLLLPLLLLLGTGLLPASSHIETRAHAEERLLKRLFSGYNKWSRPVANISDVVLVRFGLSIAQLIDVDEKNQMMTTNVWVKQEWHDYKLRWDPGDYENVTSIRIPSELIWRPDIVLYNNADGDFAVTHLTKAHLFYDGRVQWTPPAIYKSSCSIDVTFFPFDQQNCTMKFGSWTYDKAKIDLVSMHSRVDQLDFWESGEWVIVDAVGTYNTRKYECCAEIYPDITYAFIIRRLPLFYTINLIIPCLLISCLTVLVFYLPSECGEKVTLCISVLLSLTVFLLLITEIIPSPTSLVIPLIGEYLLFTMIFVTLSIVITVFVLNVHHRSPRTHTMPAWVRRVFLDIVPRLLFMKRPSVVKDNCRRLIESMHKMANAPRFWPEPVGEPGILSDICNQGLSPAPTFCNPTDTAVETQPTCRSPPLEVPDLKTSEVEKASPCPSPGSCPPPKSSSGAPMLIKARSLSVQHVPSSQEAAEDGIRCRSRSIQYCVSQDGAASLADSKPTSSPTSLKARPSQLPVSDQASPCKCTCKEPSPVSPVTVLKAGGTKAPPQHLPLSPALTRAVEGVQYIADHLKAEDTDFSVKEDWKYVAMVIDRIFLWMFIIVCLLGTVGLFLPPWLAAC
Sequence (P12390 whole entry): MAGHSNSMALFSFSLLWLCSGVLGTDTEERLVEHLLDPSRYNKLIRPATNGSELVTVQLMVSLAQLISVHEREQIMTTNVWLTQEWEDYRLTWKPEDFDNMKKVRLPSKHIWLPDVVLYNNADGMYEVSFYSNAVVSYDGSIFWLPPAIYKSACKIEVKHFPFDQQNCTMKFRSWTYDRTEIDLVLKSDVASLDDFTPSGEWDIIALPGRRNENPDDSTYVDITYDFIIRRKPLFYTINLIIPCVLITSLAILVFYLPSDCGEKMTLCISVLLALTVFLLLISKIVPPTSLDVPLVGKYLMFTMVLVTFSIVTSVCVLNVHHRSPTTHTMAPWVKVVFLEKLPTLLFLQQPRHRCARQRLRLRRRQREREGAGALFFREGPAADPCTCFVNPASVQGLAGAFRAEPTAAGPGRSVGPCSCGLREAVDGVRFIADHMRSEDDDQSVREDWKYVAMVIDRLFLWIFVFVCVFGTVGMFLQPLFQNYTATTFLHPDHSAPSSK
Hey, just the number and the unit after it is fine.

{"testSmiles": "O=C(Cc1ccc2c(c1)OCO2)N1C[C@@H]2CNC[C@@H](C2)C1", "Ki": "13.2 nM"}
{"testSmiles": "O=C(COc1ccccc1Cl)N1C[C@@H]2CNC[C@@H](C2)C1", "Ki": "548 nM"}

Query string: Fill in the blank: the reported Ki of `CS(=O)(=O)c1ccc(CC(=O)N2C[C@@H]3CNC[C@@H](C3)C2)cc1` is ____.
Result string: 22.9 nM

Query string: Item `Cc1cc(CC(=O)N2C[C@@H]3CNC[C@@H](C3)C2)on1` has what recorded Ki?
Result string: 46.9 nM

Query string: Could you share which Ki value was measured for `O=C(C#Cc1cccc2ccccc12)N1C[C@@H]2CNC[C@@H](C2)C1` ?
Result string: 46 nM

Query string: Given the entry `COc1ccc(C#CC(=O)N2C[C@@H]3CNC[C@@H](C3)C2)cc1` , report its measured Ki.
Result string: 7.8 nM

Query string: # input compound: `COc1ccccc1/C=C/C(=O)N1C[C@@H]2CNC[C@@H](C2)C1` ; wanted: its Ki
Result string: 172 nM

Query string: For `COc1cccc(C#CC(=O)N2C[C@@H]3CNC[C@@H](C3)C2)c1` , what is its reported Ki?
Result string: 6.3 nM

Query string: Which Ki is listed for `O=C(/C=C/c1cccc(Br)c1)N1C[C@@H]2CNC[C@@H](C2)C1` ?
Result string: 24.6 nM

Query string: Could you tell me which Ki is on file for `O=C(/C=C/c1ccsc1)N1C[C@@H]2CNC[C@@H](C2)C1` ?
Result string: 57.1 nM

###

target: Nicotinic acetylcholine receptor alpha1/beta1/epsilon/delta (Mus musculus) (UniProt P04756+P09690+P02716+P20782); assay: Agonist activity at mouse muscle alpha1beta1epsilondelta nAChR expressed in Xenopus oocytes at 1 uM incubated for 8 secs followed by compound washout measured after 241 secs by two-electrode voltage clamp technique; assay type: cell-based
Active and inactive are the calls of the source. No cut-off for these calls is given here.
readoutKind: Activity

{"testSmiles": "Cc1cc(CC(=O)N2C[C@@H]3CNC[C@@H](C3)C2)on1", "Activity": "inactive"}
{"testSmiles": "O=C(c1ccc(-c2ccncc2)cc1)N1C[C@@H]2CNC[C@@H](C2)C1", "Activity": "inactive"}
{"testSmiles": "CS(=O)(=O)c1ccc(CC(=O)N2C[C@@H]3CNC[C@@H](C3)C2)cc1", "Activity": "inactive"}
{"testSmiles": "O=C(c1ccc(-n2ccnc2)cc1)N1C[C@@H]2CNC[C@@H](C2)C1", "Activity": "inactive"}

Query string: What does the record list as Activity for `O=C(/C=C/c1ccncc1)N1C[C@@H]2CNC[C@@H](C2)C1` ?
Result string: inactive

###

Listing of recorded Ki by entry.
experiment: Displacement of [3H]epibatidine from calf adrenal alpha3beta4 nAChR after 90 mins by liquid scintillation counting analysis; set-up: species or system Bos taurus

Known Ki results, listed for orientation:
{"molecule": "COc1ccc(C#CC(=O)N2C[C@@H]3CNC[C@@H](C3)C2)cc1Cl", "readoutKind": "Ki", "endpointValue": "> 1000 nM"}
{"molecule": "O=C(COc1ccccc1Cl)N1C[C@@H]2CNC[C@@H](C2)C1", "readoutKind": "Ki", "endpointValue": "> 5000 nM"}
{"molecule": "O=C(c1ccc(-c2ccncc2)cc1)N1C[C@@H]2CNC[C@@H](C2)C1", "readoutKind": "Ki", "endpointValue": "> 1000 nM"}
{"molecule": "O=C(Cc1ccncc1)N1C[C@@H]2CNC[C@@H](C2)C1", "readoutKind": "Ki", "endpointValue": "> 1000 nM"}
{"molecule": "O=C(Cc1ccc2c(c1)OCO2)N1C[C@@H]2CNC[C@@H](C2)C1", "readoutKind": "Ki", "endpointValue": "> 1000 nM"}
{"molecule": "COc1ccc(C#CC(=O)N2C[C@@H]3CNC[C@@H](C3)C2)cc1OC", "readoutKind": "Ki", "endpointValue": "> 1000 nM"}

Query string: # Ki lookup, item `O=C(/C=C/c1ccc2c(c1)OCO2)N1C[C@@H]2CNC[C@@H](C2)C1`
Result string: > 1000 nM

Query string: Tell me the measured Ki of O=c1cccc2n1C[C@@H]1CNC[C@H]2C1 [CYTISINICLINE] , please.
Result string: 18 nM

Query string: Name the reported Ki value associated with the molecule `O=C(C#Cc1ccc2c(c1)OCO2)N1C[C@@H]2CNC[C@@H](C2)C1`
Result string: > 1000 nM

###

biological target: Neuronal acetylcholine receptor subunit alpha-7 (Rattus norvegicus); test: Displacement of [3H]methyllycaconitine from Sprague-Dawley rat brain alpha7 nAChR after 120 mins by liquid scintillation counting analysis
pKi: −log10 of the molar value.
Attribute: pKi

{"testSmiles": "O=C(c1ccc(-c2ccncc2)cc1)N1C[C@@H]2CNC[C@@H](C2)C1", "readoutKind": "pKi", "endpointValue": "< 6.00"}
{"testSmiles": "O=C(c1ccc(-c2cccnc2)cc1)N1C[C@@H]2CNC[C@@H](C2)C1", "readoutKind": "pKi", "endpointValue": "< 6.00"}
{"testSmiles": "O=C(Cc1ccccc1)N1C[C@@H]2CNC[C@@H](C2)C1", "readoutKind": "pKi", "endpointValue": "< 5.00"}
{"testSmiles": "O=C(/C=C/c1cccc(Br)c1)N1C[C@@H]2CNC[C@@H](C2)C1", "readoutKind": "pKi", "endpointValue": "< 5.00"}
{"testSmiles": "O=C(Cc1ccc2c(c1)OCO2)N1C[C@@H]2CNC[C@@H](C2)C1", "readoutKind": "pKi", "endpointValue": "< 6.00"}

Field: next molecule
Query string: Looking for the measured pKi of `COc1ccc(C#CC(=O)N2C[C@@H]3CNC[C@@H](C3)C2)cc1` , can you help?
Result string: < 6.00

###

Each entry below carries its recorded Ki.
molecular target: Neuronal acetylcholine receptor subunit alpha-7 (Rattus norvegicus, UniProt Q05941); experiment: Displacement of [3H]methyllycaconitine from Sprague-Dawley rat brain alpha7 nAChR after 120 mins by liquid scintillation counting analysis
Sequence (Q05941 whole entry): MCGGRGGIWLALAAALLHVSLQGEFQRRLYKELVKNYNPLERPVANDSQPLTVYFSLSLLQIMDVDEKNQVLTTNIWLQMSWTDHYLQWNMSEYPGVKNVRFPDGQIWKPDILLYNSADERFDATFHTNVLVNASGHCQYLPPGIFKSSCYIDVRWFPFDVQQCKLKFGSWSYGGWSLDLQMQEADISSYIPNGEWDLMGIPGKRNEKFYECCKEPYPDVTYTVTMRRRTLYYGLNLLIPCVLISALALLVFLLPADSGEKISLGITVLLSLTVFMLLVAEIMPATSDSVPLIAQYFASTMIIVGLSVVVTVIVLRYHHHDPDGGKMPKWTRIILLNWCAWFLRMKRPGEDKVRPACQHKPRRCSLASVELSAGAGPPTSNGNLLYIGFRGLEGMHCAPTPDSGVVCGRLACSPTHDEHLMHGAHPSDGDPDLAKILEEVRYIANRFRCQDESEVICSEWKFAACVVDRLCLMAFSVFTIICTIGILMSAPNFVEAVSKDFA

Study these solved cases before continuing.
{"testSmiles": "O=C(/C=C/c1ccc(F)cc1)N1C[C@@H]2CNC[C@@H](C2)C1", "Ki": "> 5000 nM"}
{"testSmiles": "O=C(C#Cc1ccc2c(c1)OCO2)N1C[C@@H]2CNC[C@@H](C2)C1", "Ki": "> 1000 nM"}
{"testSmiles": "O=C(CCc1ccccc1)N1C[C@@H]2CNC[C@@H](C2)C1", "Ki": "> 10000 nM"}
{"testSmiles": "O=C(c1ccc(-n2ccnc2)cc1)N1C[C@@H]2CNC[C@@H](C2)C1", "Ki": "> 1000 nM"}

Query string: Suppose we examine the compound `Cc1cc(CC(=O)N2C[C@@H]3CNC[C@@H](C3)C2)on1` ; what Ki value has been reported?
Result string: > 1000 nM

Query string: Value lookup for Ki; key = `COc1ccccc1C#CC(=O)N1C[C@@H]2CNC[C@@H](C2)C1`
Result string: > 1000 nM

Query string: Entry `COc1ccc(C#CC(=O)N2C[C@@H]3CNC[C@@H](C3)C2)cc1OC` has what Ki?
Result string: > 1000 nM

Query string: Which Ki value is on record for `O=C(Cc1ccc2ccccc2c1)N1C[C@@H]2CNC[C@@H](C2)C1` ?
Result string: > 1000 nM

Query string: If you can, please state the reported Ki value of `COc1ccc(C#CC(=O)N2C[C@@H]3CNC[C@@H](C3)C2)cc1Cl` .
Result string: > 1000 nM

Query string: // Ki lookup, key: `O=C(CCc1cccnc1)N1C[C@@H]2CNC[C@@H](C2)C1`
Result string: > 5000 nM
